Catalogue of variants with associated SGCB cell-surface expression functional score (log10)
B1: library; numbered along this chain (parent)
chain: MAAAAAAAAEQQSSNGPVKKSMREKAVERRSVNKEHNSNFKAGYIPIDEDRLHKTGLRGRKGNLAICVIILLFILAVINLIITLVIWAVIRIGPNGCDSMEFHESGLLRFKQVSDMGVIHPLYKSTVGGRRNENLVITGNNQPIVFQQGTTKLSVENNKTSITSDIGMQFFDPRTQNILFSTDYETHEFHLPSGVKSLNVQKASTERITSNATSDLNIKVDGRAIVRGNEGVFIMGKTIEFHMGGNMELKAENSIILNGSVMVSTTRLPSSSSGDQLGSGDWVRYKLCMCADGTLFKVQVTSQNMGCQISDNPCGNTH

Variants of: B1
PROCEDURE_DETAILS: SGCB cell-surface expression functional score (HA stain, bin4 vs bin1, normalised to synonymous) (log10 ratio); higher = more cell-surface SGCB (functional)
# respond with the number and nothing more

VARIANT_CODE: G43W
VALUE_REPORTED: 0.34

// lookup SGCB cell-surface expression functional score (log10) for V32H
0.35

Next record, please: A65Y
0.12

What do we get for R91A ?
-0.38

Record: E156Y
-0.38

Next variant up: F170L
0.11

Here is the next variant: T150G
-0.22

Entry D275C please
-0.13

Next variant: L122W
0.1

Let us now turn to D311N
0.01
